# credit: PubChem BioAssay

Reported z-score values for the following compounds.
experiment: S. cerevisiae growth modulation with rapamycin, primary screen, strain BY4716, OD600, 96 h (AID 1091); conditions: higher = more signal, called active from +8 up or from −8 down; note: test concentration not given here
The source made the active and inactive calls.

# annotated cases, reported z-score shown
O=C1OCCC=C[C@H]2OC34C=CCN(c5ccc(Cl)cc5)C(=O)[C@H]3N(CCO)C(=O)[C@@H]4C12 (stereo partly drawn) : -0.253 (inactive)
O=c1cccc(-c2ccccc2C(F)(F)F)o1 : 0.591 (inactive)
COCCOC(=O)N1C(=O)[C@@]2(c3cc(C#Cc4ccc(OC)cc4)ccc31)[C@H](C(=O)Nc1nc3ccccc3s1)[C@H]1C(=O)O[C@H](c3ccccc3)[C@H](c3ccccc3)N1[C@@H]2c1ccccc1OCCO : 1.62 (inactive)
C=CC[C@@]12N=C(c3ccc(OCCCO)cc3)O[C@@H]1c1ccccc1N(Cc1ccccc1)C2=O : 1.86 (inactive)
C=C(/C(=C/C[C@@H](OC(C)=O)c1ccccc1OCCO)c1cc(C(=O)OC)ccc1OC)C(C)C : -0.729 (inactive)
[N-]=[N+]=NCc1ccccc1[C@H]1OC(c2ccc(OCCCO)cc2)=N[C@@]1(Cc1ccccc1)C(=O)N1CCOCC1 : -0.0315 (inactive)
Cc1ccc(S[C@]2(C(=O)NC3CC3)CC(=O)N(Cc3cc(C(F)(F)F)cc(C(F)(F)F)c3)[C@@H]2c2ccc(CO)cc2I)cc1 : -0.429 (inactive)
COCCOC(=O)N1C(=O)[C@@]2(c3cc(C#Cc4ccc(OC)cc4)ccc31)[C@H](c1ccc(OCCO)cc1)N1[C@H](c3ccccc3)[C@H](c3ccccc3)OC(=O)[C@H]1[C@@H]2C(=O)N1CCCCCCC1 : 3.2 (inactive)
Cc1ccc(S[C@]2(C(=O)NCCN3CCOCC3)CC(=O)N(C3CCCCC3)[C@@H]2c2ccc(CO)cc2I)cc1 : 1.28 (inactive)
O=C1C2C=CC(C(O)c3ccc([N+](=O)[O-])cc3)N(Nc3ccccc3)C2C(=O)N1c1ccccc1 (stereo not drawn) : 0.495 (inactive)

Prompt: Specify z-score for COCCCNC(=O)[C@@H]1c2ccccc2C(=O)N(Cc2cc(C(F)(F)F)cc(C(F)(F)F)c2)[C@H]1c1ccc(CO)cc1 and stop.
Response: -0.405 (inactive)

Prompt: Answer with the recorded z-score for the compound listed here: C=CCC(OC(C)=O)[C@@H]1[C@@H](N(Cc2cc3ccccc3o2)C(=O)c2cccc3ccccc23)c2cc(OCCCO)ccc2N1C(=O)c1ccc2ccccc2c1 (stereo partly drawn)
Response: -0.0147 (inactive)

Prompt: Consider the compound C=CCC(OC(C)=O)[C@@H]1[C@@H](N(Cc2cccc3ccccc23)C(=O)c2cccc3ccccc23)c2cc(OCCCO)ccc2N1C(=O)Cc1ccc2ccccc2c1 (stereo partly drawn) and give its recorded z-score.
Response: -1.45 (inactive)

Prompt: Check the records and state z-score for COCCOC(=O)N1C(=O)[C@@]2(c3cc(C#CC4=CCCCC4)ccc31)[C@H](C(=O)N1CCN(c3ncccn3)CC1)[C@H]1C(=O)O[C@H](c3ccccc3)[C@H](c3ccccc3)N1[C@@H]2c1ccccc1OCCO
Response: 4.42 (inactive)

Prompt: Give a short answer stating reported z-score for Cc1ccc(S(=O)(=O)N2[C@@H](c3ccccc3)C(C(=O)O)=CC[C@H]2c2ccc(C#N)cc2)cc1 .
Response: -0.371 (inactive)

Prompt: Complete the entry with z-score for CN(C)CCCC[C@@H]1NC(=O)[C@@H]2C[C@H](C(=O)NCCCCCCNC(=O)CS)[C@H](c3cccc(OCCO)c3)N2C1=O
Response: -0.471 (inactive)

* * *

experiment: small-molecule microarray binders of probe aWnt5a, primary screen, biochemical, biotinylated probe, 635/667 nm fluorescence (AID 1113); conditions: higher = more signal;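 note: score merges 667 nm fluorescence intensity with signal-to-noise per printed feature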
MEASUREMENT_LABEL: composite z-score
Response field accepts a number only; no unit should be typed.

Below, 5 compounds whose answers are already recorded.
[N-]=[N+]=NCc1ccccc1C[C@]1(C(=O)NCc2ccccc2)N=C(c2ccc(OCCCO)cc2)O[C@H]1c1ccccc1CN=[N+]=[N-] : 0.0474
Cc1ccc(S[C@]2(C(=O)NC3CC3)CC(=O)N(Cc3cc(C(F)(F)F)cc(C(F)(F)F)c3)[C@@H]2c2ccc(CO)cc2I)cc1 : 0.472
[N-]=[N+]=NCc1ccccc1C[C@]1(C(=O)N2CCCCC2)N=C(c2ccc(OCCCO)cc2)O[C@H]1c1ccccc1 : 0.105
CN(C)CCCC[C@@H]1NC(=O)[C@@H]2C[C@H](C(=O)NCCCCCCNC(=O)CS)[C@H](c3cccc(OCCO)c3)N2C1=O : -0.0478
[N-]=[N+]=NCc1ccccc1C[C@]1(C(=O)N2CCOCC2)N=C(c2ccc(OCCCO)cc2)O[C@H]1c1ccccc1CN=[N+]=[N-] : 0.653

Prompt: Query composite z-score for CO[C@H]1O[C@H](CO)[C@@H](OC(=O)Nc2ccc(C(F)(F)F)cc2)[C@H](OC(=O)Nc2ccccc2-c2ccccc2)[C@H]1OC(=O)Nc1ccccc1-c1ccccc1
Response: -0.0445

Prompt: Look up and report measured composite z-score for this entry: [N-]=[N+]=NCc1ccccc1[C@H]1OC(c2ccc(OCCCO)cc2)=N[C@@]1(Cc1ccccc1)C(=O)N1CCOCC1
Response: 0.186

Prompt: Using the record for CC(C)CNC(=O)[C@@H]1c2ccccc2C(=O)N(C(C)C)[C@H]1c1ccc(CO)cc1 , state its measured composite z-score.
Response: -0.24

Prompt: Indicate the recorded composite z-score value for this compound: C[C@@H](OCc1ccccc1)C1NC(=O)[C@@]23C(=O)N[C@@H](Cc4ccccc4)C2[C@H](C)[C@@]2(C)O[C@H]2C3/C=C/C/C=C\CNC(=O)[C@H](Cc2ccccc2)NC1=O (stereo not given in full)
Response: -0.035

Prompt: Quickly give me recorded composite z-score for COc1cc2c(cc1O)C(C1CC1)N(Cc1ccc([N+](=O)[O-])o1)CC2 (stereo not given)
Response: -0.0924

Prompt: Determine from records and report composite z-score for [N-]=[N+]=NCc1ccccc1[C@@H]1OC(c2ccc(OCCCO)cc2)=N[C@]1(Cc1ccccc1)C(=O)NCc1ccccc1
Response: 0.0495

Prompt: Return composite z-score (reported value) for this compound: CCCCC(O)C1C=CC2C(=O)N(C)C(=O)C2N1Nc1ccccc1 (stereo not given)
Response: 0.0044

Prompt: Identify measured composite z-score associated with [N-]=[N+]=NCc1ccccc1C[C@@]1(C(=O)O)N=C(c2ccc(OCCCO)cc2)O[C@@H]1c1ccccc1CN=[N+]=[N-]
Response: 0.0676

Prompt: Supply reported composite z-score belonging to this compound: O=C1OCCC=C[C@H]2OC34C=CCN(CCN5CCOCC5)C(=O)[C@H]3N(CCCO)C(=O)[C@@H]4C12 (stereo not given in full)
Response: -0.228

Prompt: Give composite z-score for NC(=O)NCC#Cc1ccc2c(c1)[C@]1(C(=O)N2)[C@H](C(=O)Nc2nc3ccccc3s2)[C@H]2C(=O)O[C@H](c3ccccc3)[C@H](c3ccccc3)N2[C@@H]1c1ccc(OCCO)cc1
Response: 0.0108

* * *

test: fission yeast growth modulation, primary screen, strain 972, OD600, 24 h, no modulator (AID 1090);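 note: basal condition with compound alone and no growth modifier present; test concentration not given here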; details: S. pombe 972 growth, higher = more signal, called active from +8 up or from −8 down
MEASUREMENT_LABEL: z-score
Form: value (number only, do not type unit).

C[C@@H](OCc1ccccc1)C1NC(=O)[C@@]23C(=O)N[C@@H](Cc4ccccc4)C2[C@H](C)[C@@]2(C)O[C@H]2C3/C=C/C/C=C\CNC(=O)[C@H](Cc2ccccc2)NC1=O (stereo partly specified) : -0.985
COCCCNC(=O)[C@@]1(Sc2ccc(C)cc2)CC(=O)N(C2CCCCC2)[C@@H]1c1ccc(CO)cc1I : -0.128
CC(C)CNC(=O)[C@@H]1c2ccccc2C(=O)N(Cc2ccccc2Cl)[C@H]1c1ccc(CO)cc1 : -0.354
O=C1c2ccccc2[C@](Cc2ccccc2I)(C(=O)O)[C@H](c2ccc(CO)cc2)N1Cc1ccccc1 : -0.912
COCCOC(=O)N1C(=O)[C@@]2(c3cc(C#CC4=CCCCC4)ccc31)[C@H](C(=O)N1CCc3cc(OC)c(OC)cc3C1)[C@H]1C(=O)O[C@H](c3ccccc3)[C@H](c3ccccc3)N1[C@@H]2c1ccc(O)cc1 : 0.94

Now for the molecule whose z-score we want.
Prompt: State its z-score: CC(=O)NCCCC[C@@H]1NC(=O)[C@H]2C[C@@H](C(=O)NCCCCCC[N+](C)(C)C)[C@@H](c3ccc(O)cc3)N2C1=O
Response: 0.555

* * *

tested on: Neuregulin-1 EGF-like domain; assay: binders of neuregulin-1 EGF-like domain, primary screen, biochemical, small-molecule microarray, 635 nm fluorescence (AID 1081); conditions: small-molecule microarray binding, higher = more signal;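 note: binding of the protein to compounds printed on small-molecule microarray slides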
Rule: composite z-score of 1 or more gives class 1; anything lower gives class 0.

Here's what some known entries look like.
CCCCC(=C=CC[C@H](O)c1ccc(OCCO)cc1)C[C@H](O)c1ccccn1 : class 1
NC(=O)N1C(=O)C2C(C1=O)C1C=C(CCCO)C2C(c2ccc(CN3CCCC3)cc2)N1Cc1cccc(OC(F)(F)F)c1 (stereo not given) : class 1

Prompt: State whether the measured composite z-score reaches 1, counting equality as reaching it, for Cc1c(-c2ccc(-c3ccc(Cl)c(Cl)c3)o2)nc(-c2ccccc2)c2c1CO[Si]2(C(C)C)C(C)C
Response: class 0

Prompt: Could you tell me if the measured composite z-score of CO[C@H]1O[C@H](CO)[C@@H](OC(=O)Nc2ccc(C(F)(F)F)cc2)[C@H](OC(=O)Nc2ccccc2-c2ccccc2)[C@H]1OC(=O)Nc1ccccc1-c1ccccc1 reaches 1 or more?
Response: class 1

Prompt: Does the reported composite z-score for CC(C)(C)OC(=O)CC[C@]1(C(=O)N2CCOCC2)N=C(c2ccc(OCCCO)cc2)O[C@H]1c1ccccc1CN=[N+]=[N-] fall at or above the 1 mark?
Response: class 1

Prompt: composite z-score >= 1 for CC(C)CNC(=O)[C@@H]1c2ccccc2C(=O)N(C2Cc3ccccc3C2)[C@H]1c1ccc(CO)cc1 ?
Response: class 1

Prompt: Exam item: decide whether the reported composite z-score for C[N+](C)(C)CCCCCCNC(=O)[C@H]1C[C@H]2C(=O)NCC(=O)N2[C@H]1c1cccc(OCCO)c1 is at least 1.
Response: class 1
